- MEASURED_ON: Dual specificity protein kinase CLK4 (Homo sapiens) (UniProt Q9HAZ1)
- Sequence (Q9HAZ1 whole entry, looked up): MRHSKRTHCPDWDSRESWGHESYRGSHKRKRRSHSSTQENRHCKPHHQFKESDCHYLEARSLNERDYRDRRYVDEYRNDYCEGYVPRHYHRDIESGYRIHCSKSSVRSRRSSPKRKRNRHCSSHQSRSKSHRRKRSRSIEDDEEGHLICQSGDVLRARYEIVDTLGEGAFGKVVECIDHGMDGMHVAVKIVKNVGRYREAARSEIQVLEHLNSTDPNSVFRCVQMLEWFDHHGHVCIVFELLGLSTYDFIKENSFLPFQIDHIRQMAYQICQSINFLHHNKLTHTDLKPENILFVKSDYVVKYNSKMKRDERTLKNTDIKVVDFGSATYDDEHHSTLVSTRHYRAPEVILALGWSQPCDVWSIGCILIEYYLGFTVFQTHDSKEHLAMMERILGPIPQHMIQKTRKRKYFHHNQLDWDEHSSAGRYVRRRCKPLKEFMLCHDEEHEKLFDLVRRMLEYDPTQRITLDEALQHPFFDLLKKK
- ASSAY_REMARKS: qHTS Assay for Inhibitors of CDC-like Kinase 4 (Kinase-Glo Assay) (AID 1770); also: nearly all actives have a fitted effect of over 65% in size
- RUN_CONDITIONS: recombinant Clk4, Kinase-Glo ATP depletion luminescence; series mostly up to 66.7 µM
Results filed as inconclusive are left out. Active and inactive are the calls of the source. Calls follow the shape of the dose curve; as a rule, active = well fitted inhibition curve with a large enough effect; inconclusive = small, poorly fitted or top-dose-only effect; inactive = flat fitted curve, though single readings scatter.
Choose one outcome from this list and give only that: yes (1) for active, no (0) for inactive

Worked cases, answers included:
• Cn1c(=O)c(-c2ccc(Cl)cc2)nc2cnc(Nc3ccccc3)nc21 = no (0)
• COCCn1c(=O)c(-c2ccc(F)cc2)nc2cnc(OC)nc21 = no (0)

[in] What is the recorded call for this molecule in the test? O=c1c(CCc2ccccc2)nc2cnc(N3CCNCC3)nc2n1C1CC1
[out] no (0)

[in] What is the recorded call for this molecule in the test? O=c1c(-c2ccccc2)nc2cnc(N3CCOCC3)nc2n1C1CC1
[out] no (0)

[in] What is the recorded call for this molecule in the test? FC(F)(F)c1ccccc1-c1ccc2ncnc(NCc3cccnc3)c2c1
[out] no (0)

[in] What is the recorded call for this molecule in the test? CN1CCN(c2ncnc3ccc(-c4ccccc4Cl)cc23)CC1
[out] yes (1)

[in] What is the recorded call for this molecule in the test? COCCn1c(=O)c(-c2ccc(Cl)cc2)nc2cnc(OCc3ccccc3)nc21
[out] no (0)

These measurements were taken from PubChem BioAssay (NCATS).
